// data source = PubChem BioAssay (NCI)

system: HOP-62 NSCLC; test: NCI-60 one-dose screen, 48 h; conditions: 10 µM unless noted
This is part of a sample that, as a whole, favours compounds with a hit. Of some 83,000 tested, about 20% had one in any assay. Activity calls are given as the source filed them. The calls were made as follows: active = growth percent below 10; inactive = the rest.
Classes used: 1 for active, 0 for inactive

compound=CN(C)c1nc(-c2ccco2)n2nc(-c3ccc(Cl)cc3)cc2n1 discrete_label=0
compound=CCCCCc1c(C)[nH]c(/C=C2\N=C(c3ccc[nH]3)C=C2Oc2ccc(OC)cc2)c1C discrete_label=1
compound=COc1cc(OC)c(C(=O)/C=C/c2cccc(OC(C)=O)c2)cc1CC=C(C)C discrete_label=0
compound="COc1ccc2c(c1)N(Cc1ccc(Cl)cc1)CCC2N1CCCC1=O (centres undefined)" discrete_label=0
compound=O=S1(=O)NCCCN1CCNc1nccc(-c2c(-c3cccc(O)c3)nc3sccn23)n1 discrete_label=0
compound="COc1cc(NCCC2CCCCN2)c2ncccc2c1OC (centres undefined)" discrete_label=0
compound="COC(=O)C(Br)(C(=O)OC)C(Br)C(Br)C(Br)c1ccccc1 (centres undefined)" discrete_label=0
compound=O=P(O)(O)C(O)(Cc1cccnc1)P(=O)(O)O discrete_label=0
compound=CN(C)c1nc(-c2cccs2)n2nc(-c3ccco3)cc2n1 discrete_label=0
compound=Nc1c(N)c2ccccc2c2ccccc12 discrete_label=0
compound=CCS(=O)(=O)Nc1cccc(Nc2c3cccc(C)c3nc3c(C)cccc23)c1OC discrete_label=1
compound=Cc1cccc(N=NC(=S)NNc2cccc(C)c2)c1 discrete_label=0
compound=Nc1ccc(C2=NNC(=O)Cc3cc4c(cc32)OCCO4)cc1Cl discrete_label=0
compound=CCn1c(=O)c(C(=O)NCCCO)c(O)c2ccccc21 discrete_label=0
compound="CC(=O)C1CCC2C3CC(C)=C4CC(O)CCC4(C)C3CCC12C (centres undefined)" discrete_label=0
compound="ClC1(Cl)C2CCCCCCC21 (centres undefined)" discrete_label=0
compound="COc1ccc(C(=O)OC2C(OC3C(O)COC(O[C@H]4C[C@H]5[C@@H]6CC=C7C[C@@H](O)CC[C@]7(C)[C@H]6CC[C@]5(C)[C@H]4[C@H](C)C(=O)CCC(C)C)C3OC(N)=O)OCC(O)C2O)cc1 (some centres undefined)" discrete_label=1
compound=COc1ccc(/C=C/c2nc3ccccc3c(=O)n2-c2ccc(C#Cc3ccc(C(C)(C)C)cc3)cc2C)c(OC)c1 discrete_label=0
compound=COc1ccc(-c2cnnn2-c2nonc2-n2cccc2)cc1 discrete_label=0
compound=Clc1ccccc1CNc1c2ccccc2nc2ccccc12 discrete_label=0
compound=Nc1nc(N)c2cc(NCc3ccc(Cl)c(Cl)c3)ccc2n1 discrete_label=1
compound=Fc1ccc(-c2cnc3nonc3n2)c(F)c1 discrete_label=0
compound=COc1ccc(C(=O)O)cc1.[Ag] discrete_label=0
compound=Cc1ccncc1NC=O discrete_label=0
compound="Oc1c(C(Nc2ccccc2Br)c2ccccc2)ccc2cccnc12 (centres undefined)" discrete_label=0
compound=COc1ccc(/C(C)=N/NC(=O)c2ccc(S(C)(=O)=O)cc2)cc1OC discrete_label=0
compound=CC(=O)c1ccc(Br)c([N+](=O)[O-])c1 discrete_label=0
compound=COc1ccc2nc(C)cc(Sc3nc4ccccc4s3)c2c1 discrete_label=0
compound=COc1cnc2c(c1)C(=O)c1c-2n(CCCNC(C)C)c(=O)c2cc(Cl)ccc12 discrete_label=1
compound=O=C(Nc1cccc(Cl)c1)Nc1ccccc1Cl discrete_label=0
compound=COc1ccccc1CNCCCN1C(=O)c2ccc3c4c(ccc(c24)C1=O)C(=O)N(CCCNCCCN)C3=O discrete_label=0
compound=CC(=O)Oc1ccccc1C(=O)Nc1ncc([N+](=O)[O-])s1 discrete_label=0
compound="COc1cc(C2CC(c3ccccc3)=NN2C=O)ccc1Oc1ccnc2cc(Cl)ccc12 (centres undefined)" discrete_label=0
compound=O=C(/C=C/c1ccccc1)c1c[nH]c2ccccc2c1=O discrete_label=0
compound=O=C(NCCN1CCCCC1)n1cc(-c2ccncc2)c(-c2ccc(Cl)c(O)c2)n1 discrete_label=0
compound=O=C(Nc1ccc(Br)cc1)c1ccc(Cl)c(Cl)c1 discrete_label=0
compound="COc1cc(CN(c2ccc(C)cc2)C2OC(=O)c3ccccc32)cc(OC)c1OC (centres undefined)" discrete_label=0
compound=COc1cc(OC)cc(-c2ccc(-c3ccc(C(=N)N)s3)s2)c1 discrete_label=1
compound=CCOC(=O)Cc1cc(Br)c(OCc2ccccc2)c(Br)c1 discrete_label=0
compound="CC(C)(C)c1nn(-c2ccccc2)c2c1C(=O)CSC(c1ccc3c(c1)OCO3)N2 (centres undefined)" discrete_label=0
compound=COc1ccc(Cl)cc1Nc1nc(C(F)(F)F)ccc1C(=O)NN discrete_label=1
compound=C(=Nc1ccc(-c2ccc(N=Cc3ccccc3)cc2)cc1)c1ccccc1 discrete_label=0
compound="COc1cc(C2CC(c3ccc(C)cc3)=NN2C=O)ccc1Oc1ccnc2cc(Cl)ccc12 (centres undefined)" discrete_label=1
compound=C=C1C(=O)O[C@H]2[C@H]1CC/C(COC(=O)NCc1c[nH]c3ccc(OC)cc13)=C\CC[C@@]1(C)O[C@@H]21 discrete_label=0
